- ASSAY_COMMENT: DUSP6 inhibitors restoring Erk phosphorylation by chemical complementation, primary imaging in DUSP6-transfected HeLa (AID 609)
- ASSAY_CONTEXT: HeLa MKP-3 transfected, phospho-Erk imaging KS statistic; measured here: cell density z-score; at 10 µM; cells stimulated with TPA for 15 min

[
  {
    "COMPOUND": "CCN(CC)CCCn1c(C)cc2c(c1=O)C(c1cccc(Cl)c1)C(C#N)=C(N)O2 (centres undefined)",
    "z-score": -0.339
  },
  {
    "COMPOUND": "CCCOc1ccc(/C(O)=C2/C(=O)C(=O)N(CCN3CCOCC3)C2c2ccccc2)cc1 (centres undefined)",
    "z-score": -0.109
  },
  {
    "COMPOUND": "O=C(CN1C(=O)c2ccccc2C1=O)NCc1ccccn1",
    "z-score": 0.0865
  },
  {
    "COMPOUND": "CC(=O)Nc1nnc(S(N)(=O)=O)s1",
    "z-score": -0.588
  },
  {
    "COMPOUND": "O=C(O)c1cc2cc(F)ccc2[nH]1",
    "z-score": 2.14
  },
  {
    "COMPOUND": "COc1ccc2[nH]c(C)c(C(=O)CN3CC(C)OC(C)C3)c2c1 (centres undefined)",
    "z-score": -0.788
  },
  {
    "COMPOUND": "CCCSc1nc(C)c(CC(=O)O)c(=O)[nH]1",
    "z-score": -2.53
  },
  {
    "COMPOUND": "Cn1c(Cl)cnc1C1CC(=O)c2cc(Cl)ccc2O1 (centres undefined)",
    "z-score": -0.672
  },
  {
    "COMPOUND": "Cc1cc(C)n(Cc2cc(C)c(Cn3nc(C)cc3C)cc2C)n1",
    "z-score": 0.927
  },
  {
    "COMPOUND": "Cc1cc(=O)oc2c(CN3CCN(C)CC3)c(O)c(Cl)cc12",
    "z-score": -0.81
  },
  {
    "COMPOUND": "CN(C)c1nc2n(c(=O)n1)C(C#N)CS2 (centres undefined)",
    "z-score": 0.947
  },
  {
    "COMPOUND": "CC1(C)CC(=O)C2=C(C1)N(Cc1ccco1)C(=O)C2(NC(=O)c1cccnc1)C(F)(F)F (centres undefined)",
    "z-score": -1.48
  },
  {
    "COMPOUND": "CCOC(=O)[C@H](CCc1ccccc1)N[C@@H](C)C(=O)N1CCC[C@H]1C(=O)O",
    "z-score": 1.2
  },
  {
    "COMPOUND": "CN(C=C1C(=O)CC(C)(C)CC1=O)CCN1CCNCC1",
    "z-score": -0.672
  },
  {
    "COMPOUND": "CCc1cc(=O)oc2c(CN3CCN(C)CC3)c(O)c(Cl)cc12",
    "z-score": 1.84
  },
  {
    "COMPOUND": "CCNc1nc(Oc2ccccc2)nc(OC(C)C(=O)OCC)n1 (centres undefined)",
    "z-score": -0.682
  },
  {
    "COMPOUND": "CCCOc1cc(CN2CCCCC2)cc(C(C)=O)c1",
    "z-score": 0.934
  },
  {
    "COMPOUND": "CCC1(C)Cc2c(sc3c2c(=O)n(C)c2nnc(SCc4ccc5c(c4)OCO5)n32)CO1 (centres undefined)",
    "z-score": 1.16
  },
  {
    "COMPOUND": "O=C1CCC(=O)N1CNc1ccccn1",
    "z-score": -0.594
  },
  {
    "COMPOUND": "OCC(O)CN1CCN(c2ccccc2)CC1 (centres undefined)",
    "z-score": 0.00928
  },
  {
    "COMPOUND": "COc1cc(/C=N/O)ccc1OCc1ccc(C(=O)O)cc1",
    "z-score": -1.09
  },
  {
    "COMPOUND": "COc1ccccc1N1CCN(CC(O)COc2cccc3ccccc23)CC1 (centres undefined)",
    "z-score": 0.673
  },
  {
    "COMPOUND": "CCN1CCc2c(C#N)c(N3CCOCC3)nc(NCc3ccccc3)c2C1",
    "z-score": 0.377
  },
  {
    "COMPOUND": "COc1ccc(OC)c2c(N)c(C#N)c(C(F)(F)C(F)(F)F)nc12",
    "z-score": 1
  }
]

---

Reported values of cell count for individual entries
- ASSAY_COMMENT: inhibitors of TNFa-induced NFkB p65 translocation, primary screen, imaging, HUVEC, MLSMR starter and 10KST1 sets (AID 438);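 further: compound added about 3h40 before a 20 min TNFalpha stimulation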
- ASSAY_CONTEXT: HUVEC TNFa-induced p65 nuclear translocation; measured here: nuclei count (cytotoxicity indicator), at 2.08 µM
REPORTED_PROPERTY: cell count

[
  {
    "MOLECULE": "COc1ccc(/C(O)=C2/C(=O)C(=O)N(CCCN(C)C)C2c2ccco2)cc1Cl (configuration not stated)",
    "REPORTED_PROPERTY": "cell count",
    "READOUT_VALUE": 697
  },
  {
    "MOLECULE": "Nc1[nH]nc2nc(NCc3ccccc3)c3c(c12)CCN(Cc1ccccc1)C3",
    "REPORTED_PROPERTY": "cell count",
    "READOUT_VALUE": 638
  },
  {
    "MOLECULE": "Cc1ccc(C)c(OCc2nnc(NC(=O)c3ccco3)s2)c1",
    "REPORTED_PROPERTY": "cell count",
    "READOUT_VALUE": 656
  },
  {
    "MOLECULE": "Cn1c(N2CCOCC2)nc2c1c(=O)n(Cc1ccc(Cl)cc1)c(=O)n2C",
    "REPORTED_PROPERTY": "cell count",
    "READOUT_VALUE": 644
  },
  {
    "MOLECULE": "CC(C)C1Cc2c(C#N)c(N)sc(=S)c2CO1 (configuration not stated)",
    "REPORTED_PROPERTY": "cell count",
    "READOUT_VALUE": 487
  },
  {
    "MOLECULE": "CCCCCCn1c(C(C)O)nc2ccccc21 (configuration not stated)",
    "REPORTED_PROPERTY": "cell count",
    "READOUT_VALUE": 528
  },
  {
    "MOLECULE": "N=c1c2c(-c3ccccc3)c(-c3ccccc3)n(Cc3ccccc3)c2ncn1CCCn1ccnc1",
    "REPORTED_PROPERTY": "cell count",
    "READOUT_VALUE": 551
  },
  {
    "MOLECULE": "CC1=C(c2ccc(Cl)cc2)[N+](=O)C(C)(C)N1[O-]",
    "REPORTED_PROPERTY": "cell count",
    "READOUT_VALUE": 523
  },
  {
    "MOLECULE": "O=C(O)c1ccccc1Nc1cccc(C(F)(F)F)c1",
    "REPORTED_PROPERTY": "cell count",
    "READOUT_VALUE": 626
  },
  {
    "MOLECULE": "CCC1SC(N)=NC1=O (configuration not stated)",
    "REPORTED_PROPERTY": "cell count",
    "READOUT_VALUE": 522
  },
  {
    "MOLECULE": "CC(=O)N=C(N)Sc1nc2ccccc2[nH]1",
    "REPORTED_PROPERTY": "cell count",
    "READOUT_VALUE": 570
  },
  {
    "MOLECULE": "Cc1nn(-c2ccccc2)c2c1C(=O)NC(=O)C(C)(C)C2",
    "REPORTED_PROPERTY": "cell count",
    "READOUT_VALUE": 526
  }
]

---

- STUDY_TARGET: Alpha-2C adrenergic receptor (Homo sapiens) (UniProt P18825)
- Sequence (P18825 whole entry, looked up): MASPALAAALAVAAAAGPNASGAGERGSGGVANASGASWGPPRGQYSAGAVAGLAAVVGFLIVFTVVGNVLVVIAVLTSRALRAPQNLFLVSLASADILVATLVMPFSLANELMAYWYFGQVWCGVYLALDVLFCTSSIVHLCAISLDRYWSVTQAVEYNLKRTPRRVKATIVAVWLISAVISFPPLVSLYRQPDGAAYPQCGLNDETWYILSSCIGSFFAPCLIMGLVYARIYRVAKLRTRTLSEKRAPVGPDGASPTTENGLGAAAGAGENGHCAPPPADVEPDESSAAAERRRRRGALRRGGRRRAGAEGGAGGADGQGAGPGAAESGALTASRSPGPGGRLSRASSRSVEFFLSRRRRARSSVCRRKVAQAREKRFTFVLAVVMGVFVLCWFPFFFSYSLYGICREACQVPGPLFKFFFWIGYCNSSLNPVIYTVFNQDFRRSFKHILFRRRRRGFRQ
- ASSAY_COMMENT: modulators of alpha2C/GIRK thallium flux, primary screen, cell-based, HEK293 alpha2C/GIRK1/2 (AID 624);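 further: slope of fluorescence ratio to pre-addition baseline per second over 15 to 24 s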
- ASSAY_CONTEXT: thallium flux BTC fluorescence, at 10 µM, actives lie on both sides

[
  {
    "COMPOUND": "Cn1c(N2CCOCC2)nc2c1c(=O)n(Cc1ccc(Cl)c(Cl)c1)c(=O)n2C",
    "slope": 0.00465
  },
  {
    "COMPOUND": "Cc1cc(C)nc(NC(=O)c2ccc(OC(C)C)cc2)n1",
    "slope": 0.00572
  },
  {
    "COMPOUND": "CCOC(=O)c1cc2c(=O)n3ccccc3nc2n(Cc2ccccc2Cl)c1=N",
    "slope": 0.00529
  },
  {
    "COMPOUND": "CCOC(=O)NC(O)C(=O)c1cccs1 (configuration not stated)",
    "slope": 0.00426
  },
  {
    "COMPOUND": "COc1ccc(CCCNC(=O)CC#N)cc1OC",
    "slope": 0.00537
  },
  {
    "COMPOUND": "COc1ccccc1N(O)C1CC(=O)N(c2ccc(Br)cc2)C1=O (configuration not stated)",
    "slope": 0.00547
  },
  {
    "COMPOUND": "CC1=CC=CN2CC(O)CN=C12 (configuration not stated)",
    "slope": 0.00477
  },
  {
    "COMPOUND": "CCOC(=O)C1CCN(c2nc3ccccc3nc2C(C#N)C(=O)OC(C)C)CC1 (configuration not stated)",
    "slope": 0.00139
  },
  {
    "COMPOUND": "COCCOC(=O)C1=C(C)NC(C)=C(C(=O)OC(C)C)C1c1cccc([N+](=O)[O-])c1 (configuration not stated)",
    "slope": 0.00348
  },
  {
    "COMPOUND": "CCCCCCOC(=O)CCn1[nH]c(=O)c2ccccc2c1=O",
    "slope": 0.0065
  },
  {
    "COMPOUND": "CCCCCSc1nc(O)cc(=O)[nH]1",
    "slope": 0.00579
  },
  {
    "COMPOUND": "CN(C=C1C(=O)CC(C)(C)CC1=O)CCN1CCNCC1",
    "slope": 0.00485
  }
]
